Hello, the source for this data is patent US20260158009A1, in case you need it.

Assay system: hRIPK1 (aa 1-375) fusion protein (Homo sapiens, UniProt Q13546)
Construct: hRIPK1 (aa 1-375) fusion protein
Sequence (Q13546 1-375): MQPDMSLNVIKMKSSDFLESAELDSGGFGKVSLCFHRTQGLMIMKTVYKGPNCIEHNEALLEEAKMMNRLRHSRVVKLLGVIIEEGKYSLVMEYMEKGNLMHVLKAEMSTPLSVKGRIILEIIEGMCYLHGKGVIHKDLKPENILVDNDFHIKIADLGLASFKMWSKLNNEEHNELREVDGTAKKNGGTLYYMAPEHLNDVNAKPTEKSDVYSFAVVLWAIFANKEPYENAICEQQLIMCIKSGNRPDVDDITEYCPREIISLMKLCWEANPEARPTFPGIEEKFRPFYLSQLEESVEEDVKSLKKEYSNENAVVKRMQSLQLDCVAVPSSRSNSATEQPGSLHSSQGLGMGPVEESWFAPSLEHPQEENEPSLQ
Method notes: ADP-Glo kinase assay: catalytic activity of RIPK1 (autophosphorylation, conversion of ATP to ADP)
Each entry below carries its reported IC50.

{"Compound structure string": "N#Cc1cnc2ccn(C[C@H]3CC[C@H](C(=O)N4OCC[C@H]4c4cnccn4)CC3)c2c1", "IC50 / nM": 27}
{"Compound structure string": "Cc1c(C#N)cncc1C[C@H]1CC[C@H](C(=O)N2OCC[C@H]2c2cc(F)cc(F)c2)CC1", "IC50 / nM": 8}
{"Compound structure string": "Cc1nn(C[C@H]2CC[C@H](C(=O)N3OCC[C@H]3c3cc(F)cc(F)c3)CC2)c2cc(F)c(C#N)cc12", "IC50 / nM": 25}
